# procedure-summary: Brain penetration in rats 1 hour after intravenous treatment
# Type: in vivo
# measurement-setup: male, Han Wistar, arterial plasma; rat, one hour after intravenous administration, 1 mg/kg; read-out: average arterial plasmatic level
measured-endpoint: concentration at 1 h (ng/mL)
Give the quantity in ng/mL, number only.

Prompt: Fill in: concentration at 1 h of Cc1cccc(NCC2CC3(CCN2C(=O)c2nc(C)sc2-c2ccccc2)CC3)n1 (single isomer, unassigned) is ___
Completion: 126

====

# tested-system: human OX1 receptor (Homo sapiens, UniProt O43613)
# procedure-summary: FLIPR measurement of intracellular calcium, antagonistic activity at OX1
# measurement-setup: pKb OX1, CHO cells with human recombinant OX1, activated with orexin-A 3 nM; 1 nM-1 μM range; modified Cheng Prusoff
measured-endpoint: Kb (nM)
Just the number in nM, nothing appended.

Prompt: Lab note: need Kb with human OX1 receptor (Homo sapiens, UniProt O43613) for entry O=C(c1cc(F)ccc1-c1ccccn1)N1CCC2(CC2)C[C@H]1CNc1ccc(Cl)cn1 , please look it up.
Completion: 63.1

Prompt: Hi! What's the reported Kb for Cc1cccc(NCC2CCCCN2C(=O)c2ccccc2-c2ccccc2)n1 (stereo not shown) [comparison 1, reference compound] on human OX1 receptor (Homo sapiens, UniProt O43613)?
Completion: 126

====

# tested-system: human OX1 receptor (Homo sapiens, UniProt O43613)
# Sequence (O43613 1-425): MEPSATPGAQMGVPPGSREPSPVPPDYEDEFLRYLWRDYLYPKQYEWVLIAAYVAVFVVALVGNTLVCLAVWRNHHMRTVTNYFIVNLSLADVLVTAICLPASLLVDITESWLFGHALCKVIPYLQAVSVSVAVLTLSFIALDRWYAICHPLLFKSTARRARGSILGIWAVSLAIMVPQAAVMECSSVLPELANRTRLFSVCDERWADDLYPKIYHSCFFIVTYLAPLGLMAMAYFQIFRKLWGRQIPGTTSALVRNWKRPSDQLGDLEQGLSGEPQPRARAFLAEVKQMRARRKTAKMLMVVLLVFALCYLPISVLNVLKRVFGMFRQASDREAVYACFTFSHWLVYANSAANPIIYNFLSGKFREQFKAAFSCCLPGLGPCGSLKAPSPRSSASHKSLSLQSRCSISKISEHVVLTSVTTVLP
# procedure-summary: FLIPR measurement of intracellular calcium, antagonistic activity at OX1
# measurement-setup: OX1 versus OX2, from the pKb table

[
  {
    "molecule": "Cc1nc(C(=O)N2CCC3(CC3)CC2CNc2ccc(C(F)(F)F)cn2)c(-c2ccccc2)s1 (single isomer, unassigned) [Compound 8]",
    "selectivity against the OX1 receptor": "same behaviour"
  },
  {
    "molecule": "Cc1nc(C(=O)N2CCC3(CC3)CC2CNc2ccc(C(F)(F)F)cn2)c(-c2ccccc2)s1 (racemic) [Compound 7]",
    "selectivity against the OX1 receptor": "same behaviour"
  },
  {
    "molecule": "Cc1cccc(NCC2CC3(CCN2C(=O)c2nc(C)sc2-c2ccccc2)CC3)n1 (racemic) [Compound 1]",
    "selectivity against the OX1 receptor": "same behaviour"
  }
]

====

# tested-system: human OX1 receptor (Homo sapiens, UniProt O43613)
# procedure-summary: FLIPR measurement of intracellular calcium, antagonistic activity at OX1
# measurement-setup: pKb OX1, CHO cells with human recombinant OX1, activated with orexin-A 3 nM; 1 nM-1 μM range; modified Cheng Prusoff
Kb: recorded values
Entry rule: numbers only, all in µM.

Recorded Kb, per entry:
[
  {
    "compound": "Cc1ccc(-c2cnccn2)c(C(=O)N2CCC3(CC3)C[C@H]2CNc2cccc(Cl)n2)c1",
    "numeric-result": 0.0251
  },
  {
    "compound": "Cc1ccc(-n2nccn2)c(C(=O)N2CCC3(CC3)C[C@H]2CNc2cccc(Cl)n2)c1",
    "numeric-result": 0.126
  },
  {
    "compound": "Cc1nc(C(=O)N2CCC3(CCCC3)CC2CNc2ccc(Cl)cn2)c(-c2ccccc2)s1 (racemic)",
    "numeric-result": 0.0398
  },
  {
    "compound": "O=C(c1ccccc1-n1nccn1)N1CCC2(CC2)C[C@H]1CNc1ccc(Cl)cn1",
    "numeric-result": 0.0251
  },
  {
    "compound": "COC(=O)c1cc(Cl)ccc1NCC1CC2(CCN1C(=O)c1nc(C)sc1-c1ccc(F)cc1)CC2 (racemic)",
    "numeric-result": 0.126
  },
  {
    "compound": "O=C(c1ccccc1OCC1CC1)N1CCC2(CC2)CC1CNc1ccc(Cl)cn1 (racemic)",
    "numeric-result": 0.1
  },
  {
    "compound": "Cc1cnc(NC[C@@H]2CC3(CCN2C(=O)c2nc(C)sc2-c2ccccc2)CC3)nc1",
    "numeric-result": 0.0501
  },
  {
    "compound": "Cc1ccc(-n2nccn2)c(C(=O)N2CCC3(CC3)C[C@H]2CNc2ccc(C(F)(F)F)cn2)c1",
    "numeric-result": 0.0251
  },
  {
    "compound": "Cc1ccnc(NC[C@@H]2CC3(CCN2C(=O)c2nc(C)sc2-c2ccccc2)CC3)n1",
    "numeric-result": 0.126
  },
  {
    "compound": "Cc1ccc(-n2nccn2)c(C(=O)N2CC3(CC3)C[C@H]2CNc2cccc(C)n2)c1",
    "numeric-result": 0.0794
  }
]

--- query ---
Prompt: I have this compound here, O=C(c1c(F)cccc1-n1nccn1)N1CCC2(CC2)C[C@H]1CNc1ccc(Cl)cn1 , and I need its recorded Kb.
Completion: 0.0158

====

# procedure-summary: Pharmacokinetics in male Han Wistar rats, intravenous and oral
# Assay type: in vivo
# measurement-setup: male, Han Wistar, plasma; rat, intravenous, 1 mg/kg
measured-endpoint: clearance

Prompt: Give its clearance value. Item: Cc1cccc(NCC2CC3(CCN2C(=O)c2nc(C)sc2-c2ccccc2)CC3)n1 (single isomer, unassigned)
Completion: ~5.33 mL/min

====

# log10 Kb values compiled below
# tested-system: human OX1 receptor (Homo sapiens, UniProt O43613)
# procedure-summary: FLIPR measurement of intracellular calcium, antagonistic activity at OX1
# measurement-setup: pKb OX1, CHO cells with human recombinant OX1, activated with orexin-A 3 nM; 1 nM-1 μM range; modified Cheng Prusoff
Hello, just confirming the data are log10 of Kb with units of nM.

Please review the following examples before continuing.
[
  {
    "molecule": "Cc1ccc(-n2nccn2)c(C(=O)N2CCC3(CC3)C[C@H]2CNc2cccc(C(F)(F)F)n2)c1",
    "numeric-result": 1.70
  },
  {
    "molecule": "Cc1cccc(NCC2CCCCN2C(=O)c2nc(C)sc2-c2ccccc2)n1 (stereo not shown) [comparison 3, reference compound]",
    "numeric-result": 0.00
  }
]

Prompt: Please give the measured log10 Kb for this molecule: Cc1cccc(NCC2CC3(CCN2C(=O)c2nc(C)sc2-c2ccccc2)CC3)n1 (single isomer, unassigned) [Compound 3]
Completion: 1.60

Prompt: Which log10 Kb reading was recorded for the molecule Cc1ccnc(NC[C@@H]2CC3(CCN2C(=O)c2ccccc2-c2ccccc2)CC3)n1 ?
Completion: 1.10

Prompt: If you can, please state the reported log10 Kb value of O=C(c1cc(F)ccc1-c1ncccn1)N1CCC2(CC2)C[C@H]1CNc1ccc(Cl)cn1 .
Completion: 1.20

Prompt: GET /values?readout=log10 Kb&item= Cc1ccc(-n2nccn2)c(C(=O)N2CC3(CC3)C[C@H]2CNc2ccc(Cl)cn2)c1
Completion: 0.90

Prompt: Quick check: log10 Kb of Cc1nc(C(=O)N2CCC3(CC3)CC2CNc2ccc(C(F)(F)F)cn2)c(-c2ccccc2)s1 (single isomer, unassigned) [Compound 8] ?
Completion: 1.30

====

Consider the following molecules and their measured Kb readings.
# tested-system: human OX1 receptor (Homo sapiens, UniProt O43613)
# Sequence (O43613 1-425): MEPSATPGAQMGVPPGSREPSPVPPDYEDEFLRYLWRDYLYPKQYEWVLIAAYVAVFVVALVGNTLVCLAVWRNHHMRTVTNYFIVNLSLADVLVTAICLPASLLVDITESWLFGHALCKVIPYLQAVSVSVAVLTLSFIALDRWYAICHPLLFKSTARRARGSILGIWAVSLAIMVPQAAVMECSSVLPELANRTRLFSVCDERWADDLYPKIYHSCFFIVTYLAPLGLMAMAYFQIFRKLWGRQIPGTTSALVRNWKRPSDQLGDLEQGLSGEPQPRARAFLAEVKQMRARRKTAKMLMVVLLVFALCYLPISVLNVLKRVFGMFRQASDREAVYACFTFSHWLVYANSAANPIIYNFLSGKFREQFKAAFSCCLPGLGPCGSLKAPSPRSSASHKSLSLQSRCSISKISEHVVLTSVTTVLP
# procedure-summary: FLIPR measurement of intracellular calcium, antagonistic activity at OX1
# measurement-setup: pKb OX1, CHO cells with human recombinant OX1, activated with orexin-A 3 nM; 1 nM-1 μM range; modified Cheng Prusoff
Write the value in nM as a bare number.

Below: 6 molecules and their reported Kb.
[
  {
    "molecule": "Cc1ccc(-c2cnccn2)c(C(=O)N2CCC3(CC3)C[C@H]2CNc2cccc(C(F)(F)F)n2)c1 [Compound 43]",
    "numeric-result": 10
  },
  {
    "molecule": "Cc1ccc(-c2ncccn2)c(C(=O)N2CCC3(CC3)C[C@H]2CNc2ccc(Cl)cn2)c1 (single isomer, unassigned) [Compound 13]",
    "numeric-result": 25.1
  },
  {
    "molecule": "Cc1cc(C)nc(NC[C@@H]2CC3(CCN2C(=O)c2ccccc2-c2ccccc2)CC3)n1 [Compound 35]",
    "numeric-result": 5.01
  },
  {
    "molecule": "Cc1cccc(NCC2CCCCN2C(=O)c2nc(C)sc2-c2ccc(F)cc2)n1 (stereo not shown) [comparison 5, reference compound]",
    "numeric-result": 3.16
  },
  {
    "molecule": "Cc1nc(C(=O)N2CCC3(CC3)CC2CNc2ccc(C(F)(F)F)cn2)c(-c2ccccc2)s1 (racemic) [Compound 7]",
    "numeric-result": 25.1
  },
  {
    "molecule": "Cc1nc(C(=O)N2CCC3(CC3)C[C@H]2CNc2cccc(Cl)n2)c(-c2ccccc2)s1 [Compound 17]",
    "numeric-result": 31.6
  }
]

Okay, now this molecule:
Prompt: # returns recorded Kb (system: human OX1 receptor (Homo sapiens, UniProt O43613)) for O=C(c1cc(F)ccc1-n1nccn1)N1CCC2(CC2)C[C@H]1CNc1ccc(Cl)cn1 [Compound 29]
Completion: 31.6
